system: JAK1 (Homo sapiens (Human))
Sequence (P23458 875-1153): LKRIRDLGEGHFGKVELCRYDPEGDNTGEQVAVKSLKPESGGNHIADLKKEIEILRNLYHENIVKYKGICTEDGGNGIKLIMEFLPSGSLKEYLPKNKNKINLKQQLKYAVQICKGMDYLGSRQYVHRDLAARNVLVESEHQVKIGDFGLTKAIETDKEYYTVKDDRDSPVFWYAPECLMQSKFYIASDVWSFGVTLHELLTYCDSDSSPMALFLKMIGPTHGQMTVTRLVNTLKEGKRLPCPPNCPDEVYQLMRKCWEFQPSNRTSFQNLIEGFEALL
procedure_text: Jak biochemical HTRF enzyme assay, JAK1
measure_name: pIC50
Numbers only, as −log10 of the molar value.

What the record says about COc1cc(Nc2nn([C@H]3COCC[C@@H]3C#N)cc2C(N)=O)cc(F)n1 (single isomer, unassigned) : pIC50 is 9.37

====

procedure_text: Dog pharmacokinetics after IV administration
reported_conditions: in vivo, 0.25 mg/kg I.V., read-out: Vdss
measure_name: Vd (L/kg)
Numbers only, in L/kg.

What the record says about COc1cc(Nc2nn([C@H]3COCC[C@@H]3C#N)cc2C(N)=O)cc(F)n1 (single isomer, unassigned) [Compound 1] : Vd is 1.95

====

procedure_text: Dog pharmacokinetics after IV administration
reported_conditions: in vivo, 0.25 mg/kg I.V.
measure_name: AUC
# number then unit; no other words

What the record says about COc1cc(Nc2nn([C@H]3COCC[C@@H]3C#N)cc2C(N)=O)cc(F)n1 (single isomer, unassigned) : AUC is 1.29 µM·h

====

Give IC50 for every item shown.
Test system: Interleukin 6 (IL6)—JAK1/JAK2-STAT4 Pathway
procedure_text: IL6 CellSensor cell pathway engagement assay (SIE-bla ME-180 cells)
reported_conditions: Homo sapiens, ME-180, read-out: IL-6 IC50 (nM)
Give bare numbers, in nM.

1) COc1cc(Nc2nn([C@H]3COCC[C@@H]3C#N)cc2C(N)=O)cc(F)n1 (single isomer, unassigned) [Compound 1] | 41.8

# evaluate next
What the record says about COc1cc(Nc2nn([C@@H]3COCC[C@H]3C#N)cc2C(N)=O)cc(F)n1 [Enantiomer of 1] : IC50 is 2440

====

procedure_text: Dog pharmacokinetics after IV administration
reported_conditions: in vivo, 0.25 mg/kg I.V.
measure_name: clearance (mL/min/kg)
One number for each entry, in mL/min/kg.

What the record says about COc1cc(Nc2nn([C@H]3COCC[C@@H]3C#N)cc2C(N)=O)cc(F)n1 (single isomer, unassigned) : clearance is 9.42

====

system: UniProt P52333
Sequence (P52333 822-1111): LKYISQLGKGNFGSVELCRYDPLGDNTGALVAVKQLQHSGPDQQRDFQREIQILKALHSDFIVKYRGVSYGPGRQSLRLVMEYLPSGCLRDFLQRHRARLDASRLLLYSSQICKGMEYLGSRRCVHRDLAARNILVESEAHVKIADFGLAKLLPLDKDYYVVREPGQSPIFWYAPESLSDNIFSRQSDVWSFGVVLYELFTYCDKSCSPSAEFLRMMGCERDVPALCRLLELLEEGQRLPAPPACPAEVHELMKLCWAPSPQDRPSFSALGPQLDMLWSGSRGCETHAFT
Give IC50 for every item shown.

1) COc1cc(Nc2nn([C@@H]3COCC[C@H]3C#N)cc2C(N)=O)cc(F)n1 [Enantiomer of 1] | > 1250 nM

What the record says about COc1cc(Nc2nn([C@H]3COCC[C@@H]3C#N)cc2C(N)=O)cc(F)n1 (single isomer, unassigned) : IC50 is 1130 nM

====

procedure_text: IL-31 induced itching model
Type: in vivo, Beagle dogs
reported_conditions: dog, in vivo, 1 mg/kg body weight; Beagle dogs, dosing before cIL-31 challenge; read-out: approximate Tmax
measure_name: Tmax

What the record says about COc1cc(Nc2nn([C@H]3COCC[C@@H]3C#N)cc2C(N)=O)cc(F)n1 (single isomer, unassigned) [Compound 1] : Tmax is ~2 h
